Source of measurements: patent US10576086B2

Assignment: determine reported [IFN-γ] vs control for the given molecules.
- Tested on: IFN-γ production in human peripheral blood mononuclear cells (PBMCs)
- procedure_summary: Experiment 2: IFN-γ production by PHA-stimulated human PBMCs, ELISA
- Assay type: cell-based
- reported_conditions: 30 μM, Subject 1, 24 h

input: Can you share its [IFN-γ] vs control? I mean this molecule: Nc1nnc(-c2sc(Cl)c(Cl)c2Cl)c(N)n1 [CEN-079]
output: 7.60%

input: Can you share its [IFN-γ] vs control? I mean this molecule: Nc1nnc(-c2cccc(Cl)c2Cl)c(N)n1 [Lamotrigine]
output: 65%

input: Can you share its [IFN-γ] vs control? I mean this molecule: N=c1nc(N)c(-c2cccc(Cl)c2Cl)nn1CC(Cl)(Cl)Cl [CEN-216]
output: 0.0%

input: Can you share its [IFN-γ] vs control? I mean this molecule: Nc1nnc(-c2cc(C(F)(F)F)cc(C(F)(F)F)c2)c(N)n1 [CEN-092]
output: 7.4%

---

- Tested on: IFN-γ production in human peripheral blood mononuclear cells (PBMCs)
- procedure_summary: Experiment 2: IFN-γ production by PHA-stimulated human PBMCs, ELISA
- Assay type: cell-based
- reported_conditions: human PBMCs, PHA-stimulated; read-out: IC50 (concentration to inhibit IFN-γ production by 50%)
property_label: IC50 (µM)
Value expressed in µM; do not type the unit.

input: Short answer please: IC50, IFN-γ production in human peripheral blood mononuclear cells (PBMCs), entry Nc1nnc(-c2sc(Cl)c(Cl)c2Cl)c(N)n1
output: 6

---

- Tested on: IFN-γ production in human peripheral blood mononuclear cells (PBMCs)
- procedure_summary: Experiment 2: IFN-γ production by PHA-stimulated human PBMCs, ELISA
- Assay type: cell-based
- reported_conditions: 10 μM, Subject 1, 24 h
- Procedure: A similar set of tests were carried out, in which three compounds known as CEN-079(3,5-diamino-6-[2-(3,4,5-trichlorothienyl)]-1,2,4-triazine), CEN-092(3,5-diamino-6-(3,5-bistrifluoromethylphenyl)-1,2,4-triazine) and CEN-216(3,5-diamino-6-(2,3-dichlorophenyl)-2,3(2,5)-dihydro-3(5)-imino-2-(2,2,2-trichloroethyl)-1,2,4-triazine) were compared with lamotrigine. […] Cells were counted using an Improved Neubauer haemocytometer (Hawksley, UK) on a light microscope. […]
property_label: [IFN-γ] vs control
Form entry: enter the amount, then its unit.

input: Can you share its [IFN-γ] vs control? I mean this compound: Nc1nnc(-c2cccc(Cl)c2Cl)c(N)n1
output: 104.7%

input: Can you share its [IFN-γ] vs control? I mean this compound: N=c1nc(N)c(-c2cccc(Cl)c2Cl)nn1CC(Cl)(Cl)Cl
output: 0.0%

input: Can you share its [IFN-γ] vs control? I mean this compound: Nc1nnc(-c2sc(Cl)c(Cl)c2Cl)c(N)n1
output: 22.1%

input: Can you share its [IFN-γ] vs control? I mean this compound: Nc1nnc(-c2cc(C(F)(F)F)cc(C(F)(F)F)c2)c(N)n1
output: 16.1%

---

- System: IFN-γ production in human peripheral blood mononuclear cells (PBMCs)
- procedure_summary: Experiment 2: IFN-γ production by PHA-stimulated human PBMCs, ELISA
- Format: cell-based
- reported_conditions: 30 μM, Subject 2, 24 h
property_label: [IFN-γ] vs control (%)
Value expressed in %; do not type the unit.

input: Can you share its [IFN-γ] vs control? I mean this compound: Nc1nnc(-c2cc(C(F)(F)F)cc(C(F)(F)F)c2)c(N)n1
output: 24.6

input: Can you share its [IFN-γ] vs control? I mean this compound: Nc1nnc(-c2cccc(Cl)c2Cl)c(N)n1
output: 69.1

input: Can you share its [IFN-γ] vs control? I mean this compound: Nc1nnc(-c2sc(Cl)c(Cl)c2Cl)c(N)n1
output: 1.80

input: Can you share its [IFN-γ] vs control? I mean this compound: N=c1nc(N)c(-c2cccc(Cl)c2Cl)nn1CC(Cl)(Cl)Cl
output: 2.9
